target: UniProt:Q9UHD2; assay: TBK1 TR-FRET enzymatic assay;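 note: phosphorylation of a biotinylated Ser/Thr peptide by purified full-length recombinant TBK1, read by TR-FRET after 240 min at 25 °C, IC50 is the geometric mean of at least four runs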
Sequence (Q9UHD2 whole entry): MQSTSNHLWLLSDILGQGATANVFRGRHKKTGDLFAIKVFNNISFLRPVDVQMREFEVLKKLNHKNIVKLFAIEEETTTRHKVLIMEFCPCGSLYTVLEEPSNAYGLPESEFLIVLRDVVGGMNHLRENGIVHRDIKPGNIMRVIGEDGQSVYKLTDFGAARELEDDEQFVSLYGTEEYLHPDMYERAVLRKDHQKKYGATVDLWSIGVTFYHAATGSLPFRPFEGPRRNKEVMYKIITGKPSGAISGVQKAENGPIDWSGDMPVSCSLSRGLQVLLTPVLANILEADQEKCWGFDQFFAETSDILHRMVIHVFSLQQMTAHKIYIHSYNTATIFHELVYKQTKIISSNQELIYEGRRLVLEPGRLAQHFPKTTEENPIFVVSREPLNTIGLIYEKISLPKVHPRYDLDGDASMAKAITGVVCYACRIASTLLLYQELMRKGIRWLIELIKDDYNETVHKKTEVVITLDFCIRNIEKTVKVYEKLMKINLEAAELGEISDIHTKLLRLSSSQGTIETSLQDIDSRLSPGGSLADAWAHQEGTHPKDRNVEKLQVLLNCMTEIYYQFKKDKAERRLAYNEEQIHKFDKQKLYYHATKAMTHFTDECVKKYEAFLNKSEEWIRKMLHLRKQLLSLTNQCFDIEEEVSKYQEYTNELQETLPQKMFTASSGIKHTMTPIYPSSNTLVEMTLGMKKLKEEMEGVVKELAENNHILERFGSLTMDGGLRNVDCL
Measured property: pIC50
Field pIC50 (float): negative decimal logarithm of the concentration in molar.

Which pIC50 is reported for this compound? CCOc1ccc(Nc2ncnc(-c3ccc(O[C@H]4CCN(C(=O)[C@H](C)O)C[C@H]4F)c(C#N)c3)n2)cn1 [Example 541]
7.82

I have this compound here, N#Cc1cc(-c2ncnc(Nc3ccc(N4CCN(C5COC5)CC4)cc3)n2)ccc1O[C@H]1CCN(C(=O)c2ccc[nH]2)C[C@H]1F [Example 141] , and I need its recorded pIC50.
8.52

Could you share which pIC50 value was measured for N#Cc1cc(-c2ncnc(Nc3ccc(N4CCN(C5COC5)CC4)cc3)n2)ccc1O[C@H]1CCN(C(=O)c2[nH]ncc2Cl)C[C@H]1F [Example 322] ?
8.30

Param item = C[C@H](O)C(=O)N1CC[C@H](Oc2ccc(-c3ncnc(Nc4ccc5c(c4)NCCO5)n3)cc2C#N)[C@H](F)C1 [Example 517] ; retrieve measured pIC50.
8.70

Which pIC50 is reported for this compound? N#Cc1cc(-c2ncnc(Nc3ccc(N4CCN(C5COC5)CC4)cc3)n2)ccc1O[C@H]1CCN(C(=O)c2cncc(N)n2)C[C@H]1F [Example 340]
8.40

Data request, read-out pIC50, for N#Cc1cc(-c2ncnc(Nc3cn[nH]c3)n2)ccc1O[C@H]1CCN(C(=O)CO)C[C@H]1F [Example 507]
8.52

// pIC50 lookup, key: N#Cc1cc(-c2ncnc(Nc3ccc(C4CCN(CC(F)F)CC4)cc3)n2)ccc1OC1CCOCC1 [Example 65]
8.40

Which pIC50 value is on record for N#Cc1cc(-c2ncnc(Nc3ccc(N4CCN(C5COC5)CC4)cc3)n2)ccc1NC1CCOCC1 [Example 121] ?
7.96

Request the reported pIC50 associated with C[C@H](O)C(=O)N1CC[C@H](Oc2ccc(-c3ncnc(Nc4ccc(N5CCO[C@@H](CO)C5)cc4)n3)cc2C#N)C(F)(F)C1 [Example 460]
8.70

Given the entry COc1cc(Nc2ncnc(-c3ccc(O[C@H]4CCN(C(=O)CO)C[C@H]4F)c(C#N)c3)n2)ccc1N1CCN(C2COC2)CC1 [Example 392] , report its measured pIC50.
8.30

So what's the measured pIC50 for this one? N#Cc1cc(-c2ncnc(Nc3ccc(N4CCN(C5COC5)CC4)cc3)n2)ccc1OC1CCN(C(=O)[C@@H]2CCC(=O)N2)C[C@H]1F (stereo partly shown) [Example 112]
8.40

What value of measured pIC50 is listed for C[C@H](O)C(=O)N1CC[C@H](Oc2ccc(-c3ncnc(Nc4ccc(N5CCN(C6(C)COC6)CC5)cc4)n3)cc2C#N)[C@H](F)C1 [Example 312] ?
8.52

Fill in: pIC50 of COc1ccc(Nc2ncnc(-c3ccc(OC4CCOCC4)c(C#N)c3)n2)cc1 [Example 72] is ___
8.30

Name the recorded pIC50 for COc1cc(Nc2ncnc(-c3ccc(OC4CCOCC4)c(C#N)c3)n2)ccc1N1CCN(C(C)=O)CC1 [Example 32] .
9.00

For the compound shown here, CC(=O)N1CC[C@@H](Oc2ccc(-c3ncnc(Nc4ccc(N5CCN(C6COC6)CC5)cc4)n3)cc2C#N)C1 [Example 3] , give the reported pIC50.
7.70

Any idea what pIC50 was measured for N#Cc1cc(-c2ncnc(Nc3cccc(N4CCN(C5COC5)CC4)c3)n2)ccc1OC1CCOCC1 [Example 69] ?
8.22

I would be grateful if you could share the reported pIC50 for CC1(O)CCN(c2ccc(Nc3ncnc(-c4ccc(OC5CCOCC5)c(C#N)c4)n3)cc2)C1 (stereo not shown) [Example 108] .
8.52

Value lookup for pIC50; key = COc1cc(Nc2ncnc(-c3ccc(O[C@H]4CCN(C(=O)CO)CC4(F)F)c(C#N)c3)n2)ccc1N1CCN(C2COC2)CC1 [Example 560]
8.70

Sample CCn1cc(Nc2ncnc(-c3ccc(O[C@H]4CCN(C(=O)[C@H](C)O)C[C@H]4F)c(C#N)c3)n2)cn1 [Example 351] — what was its pIC50?
8.22

Dear colleague, I am looking for the recorded pIC50 of the following compound: N#Cc1cc(-c2ncnc(Nc3ccc(N4CCN(C5COC5)CC4)cc3)n2)ccc1O[C@H]1CCOC[C@H]1F [Example 297]
8.70

Please look up its pIC50: Cn1nccc1Nc1ncnc(-c2ccc(OC3CCOCC3)c(C#N)c2)n1 [Example 73]
7.05

What value of pIC50 has been reported for the following compound? COc1cc(Nc2ncnc(-c3ccc(OC4CCOCC4)c(C#N)c3)n2)ccc1C(=O)N1CCN(C2COC2)CC1 [Example 71]
8.70

Return reported pIC50; argument: N#Cc1cc(-c2ncnc(Nc3ccc(N4CCN(C5COC5)CC4)cc3)n2)ccc1O[C@H]1CCN(C(=O)N2CCCC2)C[C@H]1F [Example 424]
8.22

Sample N#Cc1cc(-c2ncnc(Nc3ccc(N4CCOC[C@H]4CO)cc3)n2)ccc1O[C@H]1CCN(C(=O)CO)C[C@H]1F [Example 384] — what was its pIC50?
8.70

Reported pIC50 for C[C@H](O)C(=O)N1CC(Oc2ccc(-c3ncnc(Nc4ccc(N5CCN(C6COC6)CC5)cc4)n3)cc2C#N)C(F)(F)C1 (stereo partly shown) [Example 198] : what is it?
8.00

Return reported pIC50; argument: Cc1cc(Nc2ncnc(-c3ccc(O[C@H]4CCN(C=O)CC4(F)F)c(C#N)c3)n2)ccc1C1CCNCC1 [Example 303]
9.00

What measured pIC50 goes with Cn1cc(Nc2ncnc(-c3ccc(N4CCCC4)c(C#N)c3)n2)cn1 [Example 8] ?
8.15

So what does the record say about pIC50 for CC(C)(O)c1cc(Nc2ncnc(-c3ccc(O[C@H]4CCN(C(=O)CO)C[C@H]4F)c(C#N)c3)n2)ccn1 [Example 397] ?
8.70
